Target: HaloTag-ING2 PHD (mouse Ing2 200-280)
Assay: peptide microarray binding signal (635 nm), min-max normalized on array (fraction of array maximum); higher = stronger binding
Conditions: peptide region: Unmod H2A variant; binder concentration: 10 nM
attributeMeasured: peptide microarray binding signal
Give the figure only, with no unit attached.

| binder | recordedNumber |
| --- | --- |
| QGGKARAKAKSRS [Unmod H2A variant Q G G K A R A K A K S R S] | 0.00251 |
| LNKLLGGVTIAQG [Unmod H2A variant L N K L L G G V T I A Q G] | 0.00615 |
| RSSRAGLQFPVGR [Unmod H2A variant R S S R A G L Q F P V G R] | 0.0177 |

Proceeding to the next binder to report its peptide microarray binding signal.
INPUT: State the recorded peptide microarray binding signal for this entry: KGNYAERVGAGAP [Unmod H2A variant K G N Y A E R V G A G A P]
OUTPUT: 0.0105
